A collection of binders and their measured LogEC50 (best-fit value) of IL-2 release, mixed lymphocyte reaction
Molecular target: human PD-L1 on cell surface (human, UniProt Q9NZQ7 19-290)
Sequence (Q9NZQ7 19-290): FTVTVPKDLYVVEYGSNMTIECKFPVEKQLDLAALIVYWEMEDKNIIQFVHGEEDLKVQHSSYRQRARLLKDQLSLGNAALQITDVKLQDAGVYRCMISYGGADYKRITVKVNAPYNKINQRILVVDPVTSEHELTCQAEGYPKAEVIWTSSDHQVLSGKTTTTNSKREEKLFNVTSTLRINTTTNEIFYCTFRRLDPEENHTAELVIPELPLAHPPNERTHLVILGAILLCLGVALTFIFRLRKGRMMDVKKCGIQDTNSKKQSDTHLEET
Assay: cell-based or functional assay
Number only, no unit.

Below: 3 binders and their reported LogEC50 (best-fit value) of IL-2 release, mixed lymphocyte reaction.
AH01946 (antibody, human IgG1, V domains shown, also called mPD-L1Ab-CBM clone AH01946) VH: QVQLQESGPGLVKPSQTLSLTCTVSGYSITSGYTWHWIRQHPGKGLEWIGYIHYSGSTKYNPSLKSRVTISRDTSKNQFSLKLSSMTAADTAVYYCARNSLFASWGQGTLVTVSS VL: DIVLTQSPDSLAVSLGERATINCRASESVDTYGDSFMHWFQQKPGQPPKLLIYRASNLESGVPDRFSGSGSGTDFTLTISSVQAEDVAVYYCQQSNEAPYTFGGGTKLEIK	-1.53
AH02029 (antibody, human IgG1, V domains shown, also called mPD-L1Ab-5BM clone AH02029) VH: QVQLQESGPGLVKPSQTLSLTCTVTGYSITSGYTWHWIRQHPGKGLEWIGYIHYSGSTKYNPSLKSRVSISRDTSKNQFSLKLSSVTAADTAVYYCARNSLFASWGQGTLVTVSS VL: DIVLTQSPDSLAVSLGERATINCRASESVDTYGDSFMHWYQQKPGQPPKLLIYRASNLESGVPDRFSGSGSGTDFTLTISSLQAEDVAVYYCQQSNEAPYTFGGGTKLEIK	-1.53
AH01950 (antibody, human IgG1, V domains shown, also called mPD-L1Ab-CBM clone AH01950) VH: QVQLQESGPGLVKPSQTLSLTCTVSGYSITSGYTWHWIRQHPGKGLEWIGYIHYSGSTKYNPSLKSRVTISRDTSKNQFSLKLSSVTAADTAVYYCARNSLFASWGQGTLVTVSS VL: DIVLTQSPDSLAVSLGERATINCRASESVDTYGDSFMHWFQQKPGQPPKLLIYRASNLESGVPDRFSGSGSGTDFTLTISSLQAEDVAVYYCQQSNEAPYTFGGGTKLEIK	-1.51

Consider now this further binder.
INPUT: I'd like to know its LogEC50 (best-fit value) of IL-2 release, mixed lymphocyte reaction. The binder in question is AH01963 (antibody, human IgG1, V domains shown, also called mPD-L1Ab-CBM clone AH01963) VH: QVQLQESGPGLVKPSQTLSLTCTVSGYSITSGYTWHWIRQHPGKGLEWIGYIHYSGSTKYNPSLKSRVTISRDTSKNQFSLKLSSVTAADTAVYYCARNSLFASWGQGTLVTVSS VL: DIVLTQSPDSLAVSLGERATINCRASESVDTYGDSFMHWYQQKPGQPPKLLIYRASNLESGVPDRFSGSGSGTDFTLTISSVQAEDVAVYYCQQSNEAPYTFGGGTKLEIK
OUTPUT: -1.39
